These measurements were taken from patent US8609653B2.

- System: HIV
- test-summary: MT4 assay: antiviral HIV activity in MT-4 cells
- Assay type: cell-based
- condition-label: Human immunodeficiency virus 1, MT4, 96 h, read-out: HIV MT4 Assay IC50 (μM), HTLV-1 transformed cell line MT-4; read-out 96 hours later with cell titer glo; 10 point dose response
- Procedure: […] Luciferase activity was measured 96 hours later by adding a cell titer glo (Promega, Madison, Wis.). […] Under the same condition, cytotoxicity of the compounds was determined using cell titer Glo™ (Promega, Madison, Wis.). […]
Counter-ions that a name gives are not always drawn.
Okay, here is how we bin by IC50: bin A: < 0.04 µM; bin B: ≥ 0.04 µM and < 0.3 µM; bin C: ≥ 0.3 µM

Before answering, review these 6 worked examples.
Cc1nc2c(ccn2Cc2c(F)cccc2F)c(-c2ccc3c(c2)CCCO3)c1C(OC(C)(C)C)C(=O)O (stereo not drawn)    bin B
Cc1nc2c(ccn2[C@H](C)c2ccc(F)cc2)c(-c2ccc3c(c2)CCCO3)c1C(OC(C)(C)C)C(=O)O (stereo partly drawn)    bin A
COc1ccc(Cn2ccc3c(-c4ccc5c(c4)CCCO5)c(C(OC(C)(C)C)C(=O)O)c(C)nc32)cc1F (stereo not drawn)    bin B
Cc1ccc(-c2c(C(OC(C)(C)C)C(=O)O)c(C)nc3c2ccn3Cc2ccc(C)c(F)c2)cc1 (stereo not drawn)    bin C
Cc1nc2c(ccn2Cc2ccc(F)c(F)c2)c(-c2ccc(F)cc2)c1[C@H](OC(C)(C)C)C(=O)O    bin C
Cc1nc2c(ccn2Cc2ccc(F)c(F)c2)c(-c2ccc3c(c2)CCCO3)c1[C@H](OC(C)(C)C)C(=O)O    bin A

// query Class? Entry: Cc1nc2c(ccn2Cc2ccc(F)c(F)c2)c(-c2ccc(Cl)c(F)c2)c1[C@H](OC(C)(C)C)C(=O)O
// result bin B

// query // query: Cc1nc2c(ccn2Cc2cccc(F)c2F)c(-c2ccc3c(c2)CCCO3)c1[C@@H](OC(C)(C)C)C(=O)O
// result bin C

// query // query: COCCn1ccc2c(-c3ccc(C)cc3)c(C(OC(C)(C)C)C(=O)O)c(C)nc21 (stereo not drawn)
// result bin C

// query // query: Cc1nc2c(ccn2Cc2ccc(F)cc2)c(-c2ccccc2F)c1C(OC(C)(C)C)C(=O)O (stereo not drawn)
// result bin B

// query // query: Cc1cc(Cl)ccc1-c1c(C(OC(C)(C)C)C(=O)O)c(C)nc2c1ccn2Cc1ccc(F)cc1 (stereo not drawn) [Example 94, Trifluoroacetic acid salt]
// result bin B

// query // query: Cc1nc2c(ccn2Cc2ccc(F)c(F)c2)c(-c2ccc3c(c2Cl)N(C)CCO3)c1[C@H](OC(C)(C)C)C(=O)O (atropisomer, axis not shown; (M)) [Example 116, Trifluoroacetic acid salt]
// result bin A

// query // query: Cc1ccc(F)cc1Cn1ccc2c(-c3ccc4c(c3)CCCO4)c(C(OC(C)(C)C)C(=O)O)c(C)nc21 (stereo not drawn)
// result bin B

// query // query: Cc1nc2c(ccn2Cc2cc(F)c(F)c(F)c2)c(-c2ccc3c(c2)CCCO3)c1C(OC(C)(C)C)C(=O)O (stereo not drawn)
// result bin B

// query // query: Cc1nc2c(ccn2Cc2ccc(F)c(F)c2)c(-c2ccc3c(c2Cl)NCCO3)c1[C@H](OC(C)(C)C)C(=O)O (atropisomer, axis not shown; (M)) [Example 113, Trifluoroacetic acid salt]
// result bin A

// query // query: Cc1nc2c(ccn2Cc2ccc(F)c(F)c2)c(-c2cc3c(cc2F)OCCC3)c1[C@H](OC(C)(C)C)C(=O)O (atropisomer, axis not shown; (M))
// result bin A

// query // query: Cc1ccc(-c2c(C(OC(C)(C)C)C(=O)O)c(C)nc3c2ccn3Cc2ccc(Cl)cc2)cc1 (stereo not drawn)
// result bin C
